target or test system: chymotrypsin-like activity of the 20S proteasome (Oryctolagus cuniculus)
Construct: In Vitro Purified Rabbit Muscle 20S Proteasome Activity Assays; from tissue; host or cells: rabbit muscle
Sequence (G1T4Q9 1-263): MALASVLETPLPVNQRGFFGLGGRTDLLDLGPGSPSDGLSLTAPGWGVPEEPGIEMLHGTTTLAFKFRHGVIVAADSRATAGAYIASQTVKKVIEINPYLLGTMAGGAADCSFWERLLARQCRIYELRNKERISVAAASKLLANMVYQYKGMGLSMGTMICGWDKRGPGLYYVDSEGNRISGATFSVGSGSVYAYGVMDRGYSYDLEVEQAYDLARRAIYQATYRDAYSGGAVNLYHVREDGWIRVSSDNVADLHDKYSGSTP
test method notes: In vitro purified rabbit muscle 20S proteasome assay, chymotrypsin-like (CT-L) activity, Suc-LLVY-AMC substrate
Assay type: biochemical
Decision: IC50 beneath 4 nM gives 1 (yes); IC50 meeting or exceeding 4 nM gives 0 (no).

>  <smi>
CC(C)(C)c1ccc(S(=O)(=O)OCC[C@H]2C(=O)N[C@@]3([C@@H](O)[C@@H]4C=CCCC4)C(=O)O[C@@]23C)cc1

>  <class>
1 (yes)

$$$$
>  <smi>
CC(=O)OCC[C@H]1C(=O)N[C@@]2([C@@H](O)[C@@H]3C=CCCC3)C(=O)O[C@@]12C

>  <class>
0 (no)

$$$$
>  <smi>
CN(C)c1cccc2c(S(=O)(=O)OCC[C@H]3C(=O)N[C@@]4([C@@H](O)[C@@H]5C=CCCC5)C(=O)O[C@@]34C)cccc12

>  <class>
1 (yes)

$$$$
>  <smi>
C[C@@]12OC(=O)[C@]1([C@@H](O)[C@@H]1C=CCCC1)NC(=O)[C@@H]2CCOS(C)(=O)=O

>  <class>
0 (no)

$$$$
>  <smi>
C[C@@]12OC(=O)[C@]1([C@@H](O)[C@@H]1C=CCCC1)NC(=O)[C@@H]2CCOS(=O)(=O)c1ccc(Oc2ccccc2)cc1

>  <class>
1 (yes)

$$$$
>  <smi>
C[C@@]12OC(=O)[C@]1([C@@H](O)[C@@H]1C=CCCC1)NC(=O)[C@@H]2CCOS(=O)(=O)c1ccc(-c2ccccc2)cc1

>  <class>
1 (yes)

$$$$
>  <smi>
C[C@@]12OC(=O)[C@]1([C@@H](O)[C@@H]1C=CCCC1)NC(=O)[C@@H]2CCOC(=O)c1ccc(-c2ccccc2)cc1

>  <class>
0 (no)

$$$$
>  <smi>
Cc1ccc(S(=O)(=O)OCC[C@H]2C(=O)N[C@@]3([C@@H](O)[C@@H]4C=CCCC4)C(=O)O[C@@]23C)cc1

>  <class>
1 (yes)

$$$$

====

target or test system: chymotrypsin-like activity of the 20S proteasome (Oryctolagus cuniculus)
Construct: In Vitro Purified Rabbit Muscle 20S Proteasome Activity Assays; from tissue; host or cells: rabbit muscle
test method notes: In vitro purified rabbit muscle 20S proteasome assay, chymotrypsin-like (CT-L) activity, Suc-LLVY-AMC substrate
Type: biochemical
conditions: rabbit 20S proteasome; mean ± SD of 3 or more experiments; read-out: CT-L IC50
Strictly below 3 nM in IC50: class 1. Otherwise: class 0.

>  <smi>
C[C@@]12OC(=O)[C@]1([C@@H](O)[C@@H]1C=CCCC1)NC(=O)[C@@H]2CCI

>  <target or test system>
chymotrypsin-like activity of the 20S proteasome (Oryctolagus cuniculus)

>  <class>
class 1

$$$$
>  <smi>
C[C@@]12OC(=O)[C@]1([C@@H](O)[C@@H]1C=CCCC1)NC(=O)[C@@H]2CCO

>  <target or test system>
chymotrypsin-like activity of the 20S proteasome (Oryctolagus cuniculus)

>  <class>
class 0

$$$$
>  <smi>
C[C@@]12OC(=O)[C@]1([C@@H](O)[C@@H]1C=CCCC1)NC(=O)[C@@H]2CCBr

>  <target or test system>
chymotrypsin-like activity of the 20S proteasome (Oryctolagus cuniculus)

>  <class>
class 1

$$$$
>  <smi>
C[C@H]1C(=O)N[C@@]2([C@@H](O)[C@@H]3C=CCCC3)C(=O)O[C@@]12C

>  <target or test system>
chymotrypsin-like activity of the 20S proteasome (Oryctolagus cuniculus)

>  <class>
class 0

$$$$
>  <smi>
CCC[C@H]1C(=O)N[C@@]2([C@@H](O)[C@@H]3C=CCCC3)C(=O)O[C@@]12C

>  <target or test system>
chymotrypsin-like activity of the 20S proteasome (Oryctolagus cuniculus)

>  <class>
class 0

$$$$
>  <smi>
C[C@@]12OC(=O)[C@]1([C@@H](O)[C@@H]1C=CCCC1)NC(=O)[C@@H]2CCF

>  <target or test system>
chymotrypsin-like activity of the 20S proteasome (Oryctolagus cuniculus)

>  <class>
class 0

$$$$

====

target or test system: caspase-like activity of the 20S proteasome (Oryctolagus cuniculus)
Construct: In Vitro Purified Rabbit Muscle 20S Proteasome Activity Assays; from tissue; host or cells: rabbit muscle
Sequence (A0A5F9DQW2 1-212): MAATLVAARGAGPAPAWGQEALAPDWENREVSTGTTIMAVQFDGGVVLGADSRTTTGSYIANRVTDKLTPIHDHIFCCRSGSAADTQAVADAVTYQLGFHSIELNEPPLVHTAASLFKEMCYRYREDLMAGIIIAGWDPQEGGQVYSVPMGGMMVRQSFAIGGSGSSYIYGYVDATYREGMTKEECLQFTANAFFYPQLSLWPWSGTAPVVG
test method notes: In vitro purified rabbit muscle 20S proteasome assay, caspase-like (C-L) activity, Z-LLEAMC substrate
Type: biochemical
Form field: IC50 (one value per entry).

>  <smi>
CN(C)c1cccc2c(S(=O)(=O)OCC[C@H]3C(=O)N[C@@]4([C@@H](O)[C@@H]5C=CCCC5)C(=O)O[C@@]34C)cccc12

>  <IC50>
90 nM

$$$$
>  <smi>
CC(C)(C)c1ccc(S(=O)(=O)OCC[C@H]2C(=O)N[C@@]3([C@@H](O)[C@@H]4C=CCCC4)C(=O)O[C@@]23C)cc1

>  <IC50>
180 nM

$$$$
>  <smi>
C[C@@]12OC(=O)[C@]1([C@@H](O)[C@@H]1C=CCCC1)NC(=O)[C@@H]2CCOC(=O)c1ccc(-c2ccccc2)cc1

>  <IC50>
160 nM

$$$$

====

target or test system: trypsin-like activity of the 20S proteasome (Oryctolagus cuniculus, UniProt G1SWK8)
Construct: In Vitro Purified Rabbit Muscle 20S Proteasome Activity Assays; from tissue; host or cells: rabbit muscle
Sequence (G1SWK8 1-271): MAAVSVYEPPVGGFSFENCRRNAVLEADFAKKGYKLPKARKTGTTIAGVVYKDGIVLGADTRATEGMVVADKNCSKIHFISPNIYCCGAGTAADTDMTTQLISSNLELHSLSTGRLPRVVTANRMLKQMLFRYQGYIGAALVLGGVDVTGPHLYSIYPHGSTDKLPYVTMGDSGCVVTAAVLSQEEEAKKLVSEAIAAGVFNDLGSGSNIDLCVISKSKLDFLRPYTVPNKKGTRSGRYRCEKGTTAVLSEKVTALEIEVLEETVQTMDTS
test method notes: In vitro purified rabbit muscle 20S proteasome assay, trypsin-like (T-L) activity, Boc-LRR-AMC substrate
Format: biochemical
attribute measured: IC50 (nM)

>  <smi>
C[C@@]12OC(=O)[C@]1([C@@H](O)[C@@H]1C=CCCC1)NC(=O)[C@@H]2CCOS(=O)(=O)c1ccc(Oc2ccccc2)cc1

>  <result>
14

$$$$
>  <smi>
CC(=O)OCC[C@H]1C(=O)N[C@@]2([C@@H](O)[C@@H]3C=CCCC3)C(=O)O[C@@]12C

>  <result>
745

$$$$
>  <smi>
CN(C)c1cccc2c(S(=O)(=O)OCC[C@H]3C(=O)N[C@@]4([C@@H](O)[C@@H]5C=CCCC5)C(=O)O[C@@]34C)cccc12

>  <result>
12

$$$$
>  <smi>
Cc1ccc(S(=O)(=O)OCC[C@H]2C(=O)N[C@@]3([C@@H](O)[C@@H]4C=CCCC4)C(=O)O[C@@]23C)cc1

>  <result>
9.9

$$$$
>  <smi>
C[C@@]12OC(=O)[C@]1([C@@H](O)[C@@H]1C=CCCC1)NC(=O)[C@@H]2CCOC(=O)c1ccc(-c2ccccc2)cc1

>  <result>
52

$$$$
>  <smi>
CC(C)(C)c1ccc(S(=O)(=O)OCC[C@H]2C(=O)N[C@@]3([C@@H](O)[C@@H]4C=CCCC4)C(=O)O[C@@]23C)cc1

>  <result>
31

$$$$
>  <smi>
C[C@@]12OC(=O)[C@]1([C@@H](O)[C@@H]1C=CCCC1)NC(=O)[C@@H]2CCOS(=O)(=O)c1ccc(-c2ccccc2)cc1

>  <result>
15

$$$$
>  <smi>
C[C@@]12OC(=O)[C@]1([C@@H](O)[C@@H]1C=CCCC1)NC(=O)[C@@H]2CCOS(C)(=O)=O

>  <result>
65

$$$$
